# EXPERIMENT: in vitro
# TEST_SETTINGS: human, hela cells, % viability
OBSERVABLE: viability at 28.5 h, 10 µM (%)
Numbers only here, please. The scale is %.

Recorded viability at 28.5 h, 10 µM of CCOc1ccc2c(c1)cc(C(=O)N(C)CC(F)(F)F)n2C , please.
80.7

Another compound to check: COc1cccc(C(=O)Nc2nc(-c3ccccc3)cs2)c1OC
104

Another compound to check: CCn1cc(C(=O)O)c(=O)c2cnc(N3CCNCC3)nc21
90.8

Another compound to check: Nc1nnc(CSc2cccc3cccnc23)o1
108

Another compound to check: COc1ccc(O)c(-c2c(-c3ccc(C)cc3)n[nH]c2C)c1
93.1

Another compound to check: CN(C)c1ccc(-c2nc(N(C)C)n(C)n2)cn1
90.1

Another compound to check: CCC(O)Cn1nc(CCSC)nc1-c1ccc2[nH]ccc2c1 (stereo not shown)
104

Another compound to check: Cc1ccc(S(=O)(=O)CC(=O)Nc2ncccn2)cc1
97.3

Another compound to check: CS(=O)(=O)Nc1ncc(Br)cc1C(=O)Nc1ccc(C(F)(F)F)cc1
96.7

Another compound to check: CN(C)S(=O)(=O)n1cc(/C=C/c2nc(N)nc(-c3ccccc3O)n2)c2ccccc21
119
